Numbers sourced from patent US20230265217A1.

testedTarget: SARS-CoV-2 S1 monomer (SARS-CoV-2, UniProt P0DTC2 16-685)
testSummary: binding kinetics, Carterra SPR
pKd: −log10 of the molar value.
Quick reference for pKd among some binders
testReadout: pKd

[[record]]
binder = "7-14 (VHH) VHH: EVQLVESGGGLVQPGGSLRLSCAASGSTFSINAMGWFRQAPGKEREFVAGISRGGTTNYADSVKGRFTISADNSKNTAYLQMNSLKPEDTAVYYCAADGVPEYSDYASGPVWGQGTLVTVSS"
testreadout = "pKd"
reportedresult = 8.02

[[record]]
binder = "7-26 (VHH) VHH: EVQLVESGGGLVQPGGSLRLSCAASGSTFSINAMGWFRQAPGKEREFVAGITSSGGYTNYADSVKGRFTISADNSKNTAYLQMNSLKPEDTAVYYCAADGVPEYSDYASGPVWGQGTLVTVSS"
testreadout = "pKd"
reportedresult = 8.44

[[record]]
binder = "3-31 (VHH, also called 3-31_ExpiCHO) VHH: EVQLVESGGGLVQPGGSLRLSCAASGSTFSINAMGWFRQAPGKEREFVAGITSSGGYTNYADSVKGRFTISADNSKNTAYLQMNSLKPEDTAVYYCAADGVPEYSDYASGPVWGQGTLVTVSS"
testreadout = "pKd"
reportedresult = 8.23

[[record]]
binder = "7-37 (VHH) VHH: EVQLVESGGGLVQPGGSLRLSCAASGSTLSINAMGWFRQAPGKEREFVAGITRSGSVTNYADSVKGRFTISADNSKNTAYLQMNSLKPEDTAVYYCAADGVPEYSDYASGPVWGQGTLVTVSS"
testreadout = "pKd"
reportedresult = 7.77

